tested on: HeLa Kyoto; experiment: thermal stability score vs G1/S (z-score of summed log2 fold changes over temperatures); higher = more thermally stable than in G1/S; conditions: cell cycle stage: mitosis;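 further: synchronized HeLa Kyoto cells, proteins quantified by TMT10plex mass spectrometry, three biological replicates, mitosis taken 0.5 h after nocodazole release, G1/S directly after double thymidine block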
Quantity: thermal stability score

1. MARYEEVSVSGFEEFHRAVEQHNGKTIFAYFTGSKDAGGKSWCPDCVQAEPVVREGLKHISEGCVFIYCQVGEKPYWKDPNNDFRKNLKVTAVPTLLKYGTPQKLVESECLQANLVEMLFSED [TXNDC17] | 2.6
2. ARHGAP35 | 3.46
3. MADPWQECMDYAVTLARQAGEVVCEAIKNEMNVMLKSSPVDLVTATDQKVEKMLISSIKEKYPSHSFIGEESVAAGEKSILTDNPTWIIDPIDGTTNFVHRFPFVAVSIGFAVNKKIEFGVVYSCVEGKMYTARKGKGAFCNGQKLQVSQQEDITKSLLVTELGSSRTPETVRMVLSNMEKLFCIPVHGIRSVGTAAVNMCLVATGGADAYYEMGIHCWDVAGAGIIVTEAGGVLMDVTGGPFDLMSRRVIAANNRILAERIAKEIQVIPLQRDDED [IMPA1] | -2.39
4. MGNSALRAHVETAQKTGVFQLKDRGLTEFPADLQKLTSNLRTIDLSNNKIESLPPLLIGKFTLLKSLSLNNNKLTVLPDEICNLKKLETLSLNNNHLRELPSTFGQLSALKTLSLSGNQLGALPPQLCSLRHLDVMDLSKNQIRSIPDSVGELQVIELNLNQNQISQISVKISCCPRLKILRLEENCLELSMLPQSILSDSQICLLAVEGNLFEIKKLRELEGYDKYMERFTATKKKFA [LRRC57] | -0.56
5. MARPGMERWRDRLALVTGASGGIGAAVARALVQQGLKVVGCARTVGNIEELAAECKSAGYPGTLIPYRCDLSNEEDILSMFSAIRSQHSGVDICINNAGLARPDTLLSGSTSGWKDMFNVNVLALSICTREAYQSMKERNVDDGHIININSMSGHRVLPLSVTHFYSATKYAVTALTEGLRQELREAQTHIRATCISPGVVETQFAFKLHDKDPEKAAATYEQMKCLKPEDVAEAVIYVLSTPAHIQIGDIQMRPTEQVT [DHRS11] | -1.39
6. MLETLRERLLSVQQDFTSGLKTLSDKSREAKVKSKPRTVPFLPKYSAGLELLSRYEDTWAALHRRAKDCASAGELVDSEVVMLSAHWEKKKTSLVELQEQLQQLPALIADLESMTANLTHLEASFEEVENNLLHLEDLCGQCELERCKHMQSQQLENYKKNKRKELETFKAELDAEHAQKVLEMEHTQQMKLKERQKFFEEAFQQDMEQYLSTGYLQIAERREPIGSMSSMEVNVDMLEQMDLMDISDQEALDVFLNSGGEENTVLSPALGPESSTCQNEITLQVPNPSELRAKPPSSSSTCTDSATRDISEGGESPVVQSDEEEVQVDTALATSHTDREATPDGGEDSDS [DTNBP1] | -0.463
7. MTPLCPRPALCYHFLTSLLRSAMQNARGARQRAEAAVLSGPGPPLGRAAQHGIPRPLSSAGRLSQGCRGASTVGAAGWKGELPKAGGSPAPGPETPAISPSKRARPAEVGGMQLRFARLSEHATAPTRGSARAAGYDLYSAYDYTIPPMEKAVVKTDIQIALPSGCYGRVAPRSGLAAKHFIDVGAGVIDEDYRGNVGVVLFNFGKEKFEVKKGDRIAQLICERIFYPEIEEVQALDDTERGSGGFGSTGKN [DUT] | -0.204
8. MADVINVSVNLEAFSQAISAIQALRSSVSRVFDCLKDGMRNKETLEGREKAFIAHFQDNLHSVNRDLNELERLSNLVGKPSENHPLHNSGLLSLDPVQDKTPLYSQLLQAYKWSNKLQYHAGLASGLLNQQSLKRSANQMGVSAKRRPKAQPTTLVLPPQYVDDVISRIDRMFPEMSIHLSRPNGTSAMLLVTLGKVLKVIVVMRSLFIDRTIVKGYNENVYTEDGKLDIWSKSNYQVFQKVTDHATTALLHYQLPQMPDVVVRSFMTWLRSYIKLFQAPCQRCGKFLQDGLPPTWRDFRTLEAFHDTCRQ [MED27] | 0.247
9. MARLWGALSLWPLWAAVPWGGAAAVGVRACSSTAAPDGVEGPALRRSYWRHLRRLVLGPPEPPFSHVCQVGDPVLRGVAAPVERAQLGGPELQRLTQRLVQVMRRRRCVGLSAPQLGVPRQVLALELPEALCRECPPRQRALRQMEPFPLRVFVNPSLRVLDSRLVTFPEGCESVAGFLACVPRFQAVQISGLDPNGEQVVWQASGWAARIIQHEMDHLQGCLFIDKMDSRTFTNVYWMKVND [PDF] | 0.625
10. ARFGEF2 | -0.274
11. MANSGCKDVTGPDEESFLYFAYGSNLLTERIHLRNPSAAFFCVARLQDFKLDFGNSQGKTSQTWHGGIATIFQSPGDEVWGVVWKMNKSNLNSLDEQEGVKSGMYVVIEVKVATQEGKEITCRSYLMTNYESAPPSPQYKKIICMGAKENGLPLEYQEKLKAIEPNDYTGKVSEEIEDIIKKGETQTL [GGCT] | -3.22
12. MASGTTTTAVKIGIIGGTGLDDPEILEGRTEKYVDTPFGKPSDALILGKIKNVDCVLLARHGRQHTIMPSKVNYQANIWALKEEGCTHVIVTTACGSLREEIQPGDIVIIDQFIDRTTMRPQSFYDGSHSCARGVCHIPMAEPFCPKTREVLIETAKKLGLRCHSKGTMVTIEGPRFSSRAESFMFRTWGADVINMTTVPEVVLAKEAGICYASIAMATDYDCWKEHEEAVSVDRVLKTLKENANKAKSLLLTTIPQIGSTEWSETLHNLKNMAQFSVLLPRH [MTAP] | -2.68
13. MARGGRGRRLGLALGLLLALVLAPRVLRAKPTVRKERVVRPDSELGERPPEDNQSFQYDHEAFLGKEDSKTFDQLTPDESKERLGKIVDRIDNDGDGFVTTEELKTWIKRVQKRYIFDNVAKVWKDYDRDKDDKISWEEYKQATYGYYLGNPAEFHDSSDHHTFKKMLPRDERRFKAADLNGDLTATREEFTAFLHPEEFEHMKEIVVLETLEDIDKNGDGFVDQDEYIADMFSHEENGPEPDWVLSEREQFNEFRDLNKDGKLDKDEIRHWILPQDYDHAQAEARHLVYESDKNKDEKLTKEEILENWNMFVGSQATNYGEDLTKNHDEL [RCN1] | 1.33
